# System: Escherichia coli IAI1
# PROTOCOL_NOTES: growth (OD595) fold change vs plate DMSO controls (fold change (ratio)); higher = more growth
# COND: incubation time: 27 h, anaerobic, 37 °C
Structures can show the parent of a compound that is named as a salt.
MEASUREMENT_TYPE: growth

1) COc1cccc2c1C(=O)c1c(O)c3c(c(O)c1C2=O)C[C@@](O)(C(C)=O)C[C@@H]3O[C@H]1C[C@H](N)[C@H](O)[C@H](C)O1 [Daunorubicin hydrochloride] (20 µM) = 0.972
2) CCC1(C)CC(=O)NC1=O (stereo not drawn) [Ethosuximide] (20 µM) = 1
3) OCCN1CCN(CCCN2c3ccccc3C=Cc3ccccc32)CC1 [Opipramol dihydrochloride] (20 µM) = 0.948
4) Cc1ccccc1OCC(O)CO (stereo not drawn) [Mephenesin] (20 µM) = 1.12
5) COc1cc(/C=C/C(=O)N2CCN(CC(=O)N3CCCC3)CC2)cc(OC)c1OC [Cinepazide maleate] (20 µM) = 1.06
6) N=c1nc(N2CCCCC2)cc(N)n1O [Minoxidil] (20 µM) = 0.963
7) Nc1nc(CC(=O)Nc2ccc(CCNC[C@H](O)c3ccccc3)cc2)cs1 [Mirabegron] (20 µM) = 1.01
8) Clc1ccc(C(Cn2ccnc2)OCc2ccsc2Cl)c(Cl)c1 (stereo not drawn) [Tioconazole] (20 µM) = 0.866
9) CCCCOc1ccc(CC(=O)NO)cc1 [Bufexamac] (20 µM) = 0.929
10) Cc1c(O)c(=O)ccn1C [Deferiprone] (20 µM) = 0.999
11) Oc1c(Cl)cc(Cl)cc1Sc1cc(Cl)cc(Cl)c1O [Bithionol] (20 µM) = 0.881
12) O=C(O)COC(=O)Cc1ccccc1Nc1c(Cl)cccc1Cl [Aceclofenac] (20 µM) = 1.11
13) Cc1cc(C(C)(C)CC(C)(C)C)ccc1OCCOCC[N+](C)(C)Cc1ccccc1 [Methyl benzethonium chloride] (20 µM) = 1.13
14) NS(=O)(=O)c1cc(Cl)c(Cl)c(S(N)(=O)=O)c1 [Dichlorphenamide] (20 µM) = 0.998
15) CC=CC(=O)N(CC)c1ccccc1C [Crotamiton] (20 µM) = 1.05
16) Cc1ccc(C(=O)c2cc(O)c(O)c([N+](=O)[O-])c2)cc1 [Tolcapone] (20 µM) = 0.961
17) Cc1ccsc1/C=C/C1=NCCCN1C [Morantel tartrate] (20 µM) = 1.07
18) Oc1c(Br)cc(Br)c2cccnc12 [Broxyquinoline] (20 µM) = 0.92

###

# Tested on: Ruminococcus gnavus DSM 108212
# PROTOCOL_NOTES: fold change of Tryptamine concentration vs plate DMSO controls (fold change (ratio)); higher = more amine produced, active = hit call of the paper (significant change in both replicates, either direction)
# COND: incubation time: 27 h, anaerobic, 37 °C
Counter-ions that a name gives are not always drawn.
# fold change of Tryptamine concentration values compiled below
MEASUREMENT_TYPE: fold change of Tryptamine concentration

1. CN(C)CCOC(=O)C(c1ccccc1)C1(O)CCCC1 (stereo not drawn) [Cyclopentolate hydrochloride] (20 µM) = 1.02
2. Nc1nc2[nH]cc(CCc3ccc(C(=O)N[C@@H](CCC(=O)O)C(=O)O)cc3)c2c(=O)[nH]1 [Pemetrexed disodium] (20 µM) = 0.788
3. CC(=O)Oc1cc(C(F)(F)F)ccc1C(=O)O [Triflusal] (20 µM) = 1.01
4. CCCCNc1ccc(C(=O)OCCOCCOCCOCCOCCOCCOCCOCCOCCOC)cc1 [Benzonatate] (20 µM) = 0.971
5. COC(=O)[C@H](Cc1ccccc1)NC(=O)[C@@H](N)CC(=O)O [Aspartame] (50 µM) = 1.01
6. COCCCC/C(=N\OCCN)c1ccc(C(F)(F)F)cc1 [Fluvoxamine maleate] (20 µM) = 0.982
7. CC(NCCc1ccc(O)cc1)C(O)c1ccc(O)cc1 (stereo not drawn) [Ritodrine hydrochloride] (20 µM) = 1.02
8. Cc1scc2c1N(C(=O)CN1CCN(C)CC1)c1ccccc1NC2=O [Telenzepine dihydrochloride] (20 µM) = 1.01

Value source: the supplement of paper PMC12494721
